Biological target: hNav1.7 (Homo sapiens)
Sequence (Q15858 1-1977 isoform Q15858-3): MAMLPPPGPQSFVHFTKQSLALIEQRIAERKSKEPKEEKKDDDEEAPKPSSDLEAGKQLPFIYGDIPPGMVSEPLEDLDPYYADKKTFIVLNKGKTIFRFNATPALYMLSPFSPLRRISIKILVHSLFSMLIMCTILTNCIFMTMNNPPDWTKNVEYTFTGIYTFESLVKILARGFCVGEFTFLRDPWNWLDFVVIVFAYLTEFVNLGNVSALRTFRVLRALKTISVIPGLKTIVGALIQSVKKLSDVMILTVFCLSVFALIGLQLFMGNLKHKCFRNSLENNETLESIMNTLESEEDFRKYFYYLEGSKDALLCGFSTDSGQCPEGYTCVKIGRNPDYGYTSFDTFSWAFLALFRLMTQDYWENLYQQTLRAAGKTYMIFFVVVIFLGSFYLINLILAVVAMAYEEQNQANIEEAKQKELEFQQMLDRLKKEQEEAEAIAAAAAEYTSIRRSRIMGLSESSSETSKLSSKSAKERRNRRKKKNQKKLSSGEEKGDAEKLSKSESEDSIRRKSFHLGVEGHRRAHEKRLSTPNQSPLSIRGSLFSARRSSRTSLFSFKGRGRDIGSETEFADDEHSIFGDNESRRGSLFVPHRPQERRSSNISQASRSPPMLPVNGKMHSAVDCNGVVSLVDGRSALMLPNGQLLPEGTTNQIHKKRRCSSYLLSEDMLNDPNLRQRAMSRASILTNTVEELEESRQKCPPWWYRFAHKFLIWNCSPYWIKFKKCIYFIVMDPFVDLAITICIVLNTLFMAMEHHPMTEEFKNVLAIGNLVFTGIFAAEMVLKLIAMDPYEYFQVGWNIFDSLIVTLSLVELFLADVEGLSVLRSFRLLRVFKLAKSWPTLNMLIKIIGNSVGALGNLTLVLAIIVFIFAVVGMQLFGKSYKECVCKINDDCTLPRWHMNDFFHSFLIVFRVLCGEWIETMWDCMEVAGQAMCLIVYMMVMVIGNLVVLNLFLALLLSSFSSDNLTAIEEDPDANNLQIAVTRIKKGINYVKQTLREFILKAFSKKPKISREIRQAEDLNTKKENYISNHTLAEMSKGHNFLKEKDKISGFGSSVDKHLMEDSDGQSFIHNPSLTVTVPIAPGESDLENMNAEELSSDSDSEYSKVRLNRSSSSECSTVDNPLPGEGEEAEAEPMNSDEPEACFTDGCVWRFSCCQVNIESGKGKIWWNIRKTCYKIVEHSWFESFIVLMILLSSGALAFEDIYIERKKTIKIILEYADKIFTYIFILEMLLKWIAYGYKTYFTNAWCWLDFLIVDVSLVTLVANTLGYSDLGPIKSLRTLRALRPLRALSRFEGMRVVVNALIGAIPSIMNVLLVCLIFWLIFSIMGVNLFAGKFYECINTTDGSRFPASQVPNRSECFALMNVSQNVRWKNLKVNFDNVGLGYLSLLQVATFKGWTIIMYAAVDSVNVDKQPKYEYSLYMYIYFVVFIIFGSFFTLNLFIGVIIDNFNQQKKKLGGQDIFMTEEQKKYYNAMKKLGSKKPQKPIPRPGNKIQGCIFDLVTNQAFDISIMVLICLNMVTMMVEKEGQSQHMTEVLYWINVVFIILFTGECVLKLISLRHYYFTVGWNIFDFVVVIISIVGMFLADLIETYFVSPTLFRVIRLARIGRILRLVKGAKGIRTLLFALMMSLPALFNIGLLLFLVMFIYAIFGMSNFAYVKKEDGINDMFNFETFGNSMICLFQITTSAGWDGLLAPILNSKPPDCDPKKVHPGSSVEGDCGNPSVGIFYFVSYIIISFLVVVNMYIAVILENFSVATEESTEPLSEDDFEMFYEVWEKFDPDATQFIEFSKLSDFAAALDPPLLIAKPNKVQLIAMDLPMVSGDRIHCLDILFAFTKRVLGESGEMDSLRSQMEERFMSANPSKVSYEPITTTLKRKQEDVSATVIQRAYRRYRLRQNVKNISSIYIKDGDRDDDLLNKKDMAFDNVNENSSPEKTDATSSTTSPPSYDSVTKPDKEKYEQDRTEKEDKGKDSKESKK
Sequence (Q07699 19-218 partner): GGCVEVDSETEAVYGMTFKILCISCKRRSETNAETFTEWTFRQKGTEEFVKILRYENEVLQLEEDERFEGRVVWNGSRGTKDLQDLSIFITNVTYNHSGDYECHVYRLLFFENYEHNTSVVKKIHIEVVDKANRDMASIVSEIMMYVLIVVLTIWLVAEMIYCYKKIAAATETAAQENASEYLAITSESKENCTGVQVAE
Test: Tritiated compound binding (LBA) to membranes from cells expressing hNav1.7 and the β1 subunit, competitive binding
Conditions: competitive binding vs 100 pM [3H]compound, 18 h, room temperature, membranes with hNav1.7 and β1 subunit
observedProperty: IC50 (nM)
Numbers only, in nM.

Example cases with answers are listed next.
O=C(O)[C@@H]1C[C@@H](F)CN1C(=O)c1cc(C2CC2)c(OCC23CC4CC(CC(C4)C2)C3)cc1F	10
C[C@H](c1cc(Cl)cc(Cl)c1)N1CCC(C#N)(COc2cc(F)c(C(=O)N3C[C@H](F)C[C@H]3C(=O)O)cc2C2CC2)CC1 (single isomer, unassigned) [Example 126a]	120
O=C(O)[C@@H]1C[C@@H](F)CN1C(=O)c1cc(C2CC2)c(OCC2CCN(Cc3cc(F)c(Cl)cc3Cl)CC2)cc1F	17

Batch of 4 compounds: report IC50 for each.
1. O=C(O)C1SCCN1C(=O)c1cc(C2CC2)c(OCC23CC4CC(CC(C4)C2)C3)cc1F (stereo not shown)
2. O=C(O)[C@@H]1CCCN1C(=O)c1cc(C2CC2)c(OCC2CCN([C@@H](c3cc(Cl)cc(Cl)c3)C(F)(F)F)CC2)cc1F (single isomer, unassigned) [Example 123b]
3. O=C(O)[C@@H]1CC(O)(C(F)(F)F)CN1C(=O)c1cc(C2CC2)c(OCC23CC4CC(CC(C4)C2)C3)cc1F (stereo partly shown)
4. CN(C(=O)c1cc(C2CC2)c(OCC23CC4CC(CC(C4)C2)C3)cc1F)C1(C(=O)O)CC1

[A]
9.4
31
5300
3050
